test system: scanMAX kinase panel (EGFR mutant, ERBB2, ERBB4); assay: DiscoverX (eurofin) KINOMEscan (scanMAX platform) kinase profiling; format: binding; conditions: ERBB4
readout: % inhibition of scanMAX Kinase profiling
# do not omit the unit; it follows the number

Provide reported % inhibition of scanMAX Kinase profiling for each item, in the same order as listed.
1. C=CC(=O)Nc1cc(Nc2cc(N3OCC[C@@H]3c3cc(F)cc(F)c3)ncn2)c(OC)cc1N1CCC(N2CCN(C3CC3)CC2)CC1
2. C=CC(=O)Nc1cc(Nc2cc(N3OCC[C@@H]3c3cc(F)cc(F)c3)ncn2)c(OC)cc1N1CCC(N2CCN(CC)CC2)CC1

Result ::
1. 100%
2. 100%

Entry C=CC(=O)Nc1cc(Nc2cc(N3OCC[C@@H]3c3cc(F)cc(F)c3)ncn2)c(OC)cc1N1CCC(N2CCOCC2)CC1 — recorded % inhibition of scanMAX Kinase profiling = 100%
